# Test system: J774 murine macrophage cell line
MEASURED_ATTRIBUTE: EC50

The molecule C[N+](C)(C)CCO.[Cl-] [Choline chloride, reference compound] showed EC50 equal to 33.7 mM
